Provide the recorded IC50 for the entries that follow.
tested-system: Histone deacetylase
experiment-notes: Inhibition of HDAC in human HeLa cell extract by fluorescence plate reader assay
Format: cell-free
Param answer (str): number followed by unit.

smiles-repr	result
Nc1cccc(NC(=O)CCCCCCC(=O)Nc2ccccc2)c1	85 µM
Nc1ccccc1NC(=O)CCCCC(=O)Nc1ccccc1	238 µM
Nc1ccccc1NC(=O)CCCCCC(=O)Nc1ccccn1	91 µM
COc1ccc(NC(=O)CCCCCC(=O)Nc2ccccc2)cc1	438 µM
Nc1ccccc1NC(=O)CCCCCC(=O)Nc1ccccc1N	14 µM

We next turn to a different compound, shown below.
Prompt: Form entry - test system: Histone deacetylase; read-out: IC50; compound: Nc1ccc(NC(=O)CCCCCC(=O)Nc2ccccc2)cc1
Completion: 123 µM
